System: test animals
Assay: toxicity test: behavioral changes in the test animals observed by the naked eye
Type: in vivo, KTC-ICR mice
Conditions: Amount 1 mgg; score, normal value 4
readout-label: Ptosis

See these solved cases before continuing.
# molecule, Ptosis
measured = [
    ("COc1cc(CC(=O)NCCCc2ccc(C)c(C)c2)ccc1OCCO", 4),
    ("COc1cc(CC(=O)NCCCc2ccc(C)c(C)c2)ccc1OCCNCCO", 6),
    ("COc1cc(CC(=O)NCCCc2ccc(C)c(C)c2)ccc1OCCN [Control, reference compound]", 7),
]

Enquiry: Entry under review: `COc1cc(CC(=O)NCCCc2ccc(C)c(C)c2)ccc1OCCN1CCNCC1` . Reported Ptosis?
Return: 4
